- Study system: T1, Dm eIF4E (residues 69-248) used for ITC (Drosophila melanogaster, UniProt P48598-2 69-248)
- T1 sequence (looked up): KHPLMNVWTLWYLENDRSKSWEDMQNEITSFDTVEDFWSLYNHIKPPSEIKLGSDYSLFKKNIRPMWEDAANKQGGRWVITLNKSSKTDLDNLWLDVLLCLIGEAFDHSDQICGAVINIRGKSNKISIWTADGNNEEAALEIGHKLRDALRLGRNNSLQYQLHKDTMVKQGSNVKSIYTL
- Assay overview: ITC
Measure: Kd (nM)
# value in nM; strip the unit string

Name the recorded Kd for SRVSYDIEHLLYYSMSPHSWTLPTDWQKMQETAPSILRNKDLQD (domain or fragment, Drosophila melanogaster, UniProt Q9VR35 577-620, looked up) [GB1-stabilized Dm Mxt peptide C + NC (residues 577-620)] .
5

Shift focus to the following entry.
For GB1-stabilized Dm Mxt peptide (residues 577-640) (domain or fragment, Drosophila melanogaster, UniProt Q9VR35 577-640, looked up, also: 15N-labelled, GB1-stabilized (GB1 fusion)) SRVSYDIEHLLYYSMSPHSWTLPTDWQKMQETAPSILRNKDLQDESQRFDGDKYLASIKTAAKR , what is its reported Kd?
0.5
